Listed here: items and their measured pKd.
experimental.target: T1, RSV prefusion F (preF), subtype B (respiratory syncytial virus subtype B)
T1 construct: also called Prefusion subtype B
method: BLI, IgG
pKd: −log10 of the molar value.
quantity.measured: pKd

{"columns": ["binder", "val"],
 "data": [
  ["ADI-22763 (antibody, V domains shown, full-length IgG) VH: EVQLVESGGGLIQPGGSLRLSCAASGFTFSTYEMNWVRQAPGKGLEWVSSISTSGSTKDYAGSVKGRFTVSRDNAKNSLYLQMNSLRAEDTAIYYCARVYYYDSSGYYLALFDYWGQGTLVTVSS VL: EIVLTQSPSSLSASVGDRVTITCRASQSIASYLNWYQQKPGKAPKLLIYAASSLRSGVPSRFSGSGSGTDFTLTISSLQPEDFATYYCQQSYSTPSLTFGGGTKLEIK", 7.97],
  ["ADI-25562 (antibody, V domains shown, full-length IgG; also called Ab 453) VH: QVQLVESGGGLVKPGGSLRLSCAASGFTFSDYYMSWIRQAPGKGLEWVSYISSSSSYTNYADSVKGRFTISRDNAKNSLYLQMNSLRAEDTAVYYCARVGYSSSWYNYFDYWGQGTLVTVSS VL: SYVLTQPPSVSGAPGQRVTISCTGSSSNIGAGYDVHWYQQLPGTAPKLLIYGNSNRPSGVPDRFSGSKSGTSASLAITGLQAEDEADYYCQSYDSSLSGPVFGGGTKLTVL", 8.48],
  ["ADI-24817 (antibody, V domains shown, full-length IgG) VH: EVQLVESGGGLVKPGGSLRLSCAASGFTFSSYSMNWVRQAPGKGLEWVSSISSSSSYIYYADSVKGRFTISRDNAKNSLYLQMNSLRAEDTAVYYCARDSMALLYSNYWFDPWGQGTLVTVSS VL: QSVVTQPPSVSGAPGQRVTISCTGSSSNIGAGYDVHWYQQLPGTAPKLLIYGNSNRPSGVPDRFSGSKSGTSASLAITGLQAEDEADYYCQSYDSSLSGSVFGGGTKLTVL", 8.03],
  ["ADI-19501 (antibody, V domains shown, full-length IgG) VH: QVQLVQSGAEVKKPGASVKVSCKASGYAFTNYGVSWVRQAPGQGLEWMGWISVYNGNTNYAQKLQGRVTMTTDTSTSTAYMELRSLRSDDTALYYCARDPPSEGAAGLFDYWGQGTLVTISS VL: DIVMTQSPLSLPVTLGQPASFSCRSSQSLVYSDGNTYLSWFQQRPGQSPRRLIYKVSNRDSGVPDRFSGSGSGTDFTLKISRVEAEDVGVYYCMQGTHWPCTFGQGTKVEIK", 8.80],
  ["ADI-14347 (antibody, V domains shown, full-length IgG; also called Ab 15) VH: EVQLVESGGGLVKPGGSLRLSCAASGFTFRDYYMNWIRQAPGKGLEWVSDISASSSYTNYADSVKGRFTISRDNAKTSLYLQMNSLRAEDTAVYYCAREVVTAMGGYYFDYWGQGTLVTVSS VL: QSVVTQPPSVSGAPGQRVTISCTGSSSNIGAGYDVHWYQQLPGTAPKLLIYGNNNRPSGVPDRFSGSKSGTSASLAITGLQAEDEADYYCQSYDSSLSGSGVFGTGTKVTVL", 8.60]
]}
